Assay: Plasma pharmacokinetics after a single oral dose of rucaparib 600 mg in patients with advanced solid tumors, by hepatic function group
Conditions: human, plasma, po, 600 mg, AUC0–inf, Mean (SD), Child–Pugh moderate hepatic impairment; single oral rucaparib 600 mg
metric: AUC(0-inf) (ng·h/mL)
I only need the number, in ng·h/mL, no unit after it.

**Query** Any idea what AUC(0-inf) was measured for CNCc1ccc(-c2[nH]c3cc(F)cc4c3c2CCNC4=O)cc1 [rucaparib] ?
**Result** 26800

---

Assay: Plasma pharmacokinetics after a single oral dose of rucaparib 600 mg in patients with advanced solid tumors, by hepatic function group
Settings: human, plasma, po, 600 mg, tmax, Median (min–max), Child–Pugh mild hepatic impairment; single oral rucaparib 600 mg
metric: Tmax (h)
API: value field is a number in h; no unit string.

**Query** Item `CNCc1ccc(-c2[nH]c3cc(F)cc4c3c2CCNC4=O)cc1` has what recorded Tmax?
**Result** 3.98

---

Experiment: Plasma pharmacokinetics after a single oral dose of rucaparib 600 mg in patients with advanced solid tumors, by hepatic function group
Settings: human, plasma, po, 600 mg, t1/2, GM, NCI-ODWG moderate hepatic impairment; single oral rucaparib 600 mg
metric: half-life (h)
Quick reminder: number only, in h, skip the unit.

**Query** For the compound shown here, `CNCc1ccc(-c2[nH]c3cc(F)cc4c3c2CCNC4=O)cc1` , give the reported half-life.
**Result** 45

---

Assay: Plasma pharmacokinetics after a single oral dose of rucaparib 600 mg in patients with advanced solid tumors, by hepatic function group
Settings: human, plasma, po, 600 mg, tmax, Median (min–max), Child–Pugh moderate hepatic impairment; single oral rucaparib 600 mg
metric: Tmax (h)
I only need the number, in h, no unit after it.

**Query** // Tmax lookup, key: `CNCc1ccc(-c2[nH]c3cc(F)cc4c3c2CCNC4=O)cc1`
**Result** 3.95

---

Test: Urine pharmacokinetics (Ae0–24, CLR) after a single oral dose of rucaparib 600 mg in patients with advanced solid tumors
Assay type: in vivo, human
Details: human, urine, po, 600 mg, NCI-ODWG moderate hepatic impairment; single oral rucaparib 600 mg; read-out: CLR, Median (min–max)
metric: CL renal
State the value with its unit after it.

**Query** I have this molecule here, `CNCc1ccc(-c2[nH]c3cc(F)cc4c3c2CCNC4=O)cc1` , and I need its recorded CL renal.
**Result** 41.1 mL/min

---

Assay: Plasma pharmacokinetics after a single oral dose of rucaparib 600 mg in patients with advanced solid tumors, by hepatic function group
Details: human, plasma, po, 600 mg, t1/2, Mean (SD), Child–Pugh moderate hepatic impairment; single oral rucaparib 600 mg
metric: half-life

**Query** Fill in the blank: the reported half-life of `CNCc1ccc(-c2[nH]c3cc(F)cc4c3c2CCNC4=O)cc1` is ____.
**Result** 44.8 h

---

Test: Plasma pharmacokinetics after a single oral dose of rucaparib 600 mg in patients with advanced solid tumors, by hepatic function group
Conditions: human, plasma, po, 600 mg, AUC0–last, Mean (SD), NCI-ODWG normal hepatic function; single oral rucaparib 600 mg
metric: AUC(0-t) (ng·h/mL)
Use ng·h/mL as the unit, but write only the number.

**Query** Please look up its AUC(0-t): `CNCc1ccc(-c2[nH]c3cc(F)cc4c3c2CCNC4=O)cc1`
**Result** 16200

---

Test: Plasma pharmacokinetics after a single oral dose of rucaparib 600 mg in patients with advanced solid tumors, by hepatic function group
Settings: human, plasma, oral, 600 mg, AUC0–last, Geometric LS means, ANOVA; NCI-ODWG moderate hepatic impairment (n = 8)
metric: AUC(0-t) (ng·h/mL)
Express the result in ng·h/mL but write the number alone.

**Query** Using the record for CNCc1ccc(-c2[nH]c3cc(F)cc4c3c2CCNC4=O)cc1 [rucaparib] , report its AUC(0-t).
**Result** 17500

---

Test: Plasma pharmacokinetics after a single oral dose of rucaparib 600 mg in patients with advanced solid tumors, by hepatic function group
Details: human, plasma, po, 600 mg, Cmax, GM, Child–Pugh mild hepatic impairment; single oral rucaparib 600 mg
metric: Cmax (µg/mL)
Your answer should be a plain number; it is taken to be in µg/mL.

**Query** Request the reported Cmax associated with `CNCc1ccc(-c2[nH]c3cc(F)cc4c3c2CCNC4=O)cc1`
**Result** 0.55

---

Assay: Plasma pharmacokinetics after a single oral dose of rucaparib 600 mg in patients with advanced solid tumors, by hepatic function group
Conditions: human, plasma, po, 600 mg, Cmax, Median (min–max), NCI-ODWG normal hepatic function; single oral rucaparib 600 mg
metric: Cmax (ng/mL)
Quick note: give the figure in ng/mL, leave out the unit.

**Query** I would be grateful if you could share the reported Cmax for CNCc1ccc(-c2[nH]c3cc(F)cc4c3c2CCNC4=O)cc1 [rucaparib] .
**Result** 665

---

Assay: Plasma pharmacokinetics after a single oral dose of rucaparib 600 mg in patients with advanced solid tumors, by hepatic function group
Details: human, plasma, po, 600 mg, AUC0–inf, Mean (SD), NCI-ODWG normal hepatic function; single oral rucaparib 600 mg
metric: AUC(0-inf) (ng·h/mL)
# output: bare number, implied unit ng·h/mL

**Query** // returns reported AUC(0-inf) for input `CNCc1ccc(-c2[nH]c3cc(F)cc4c3c2CCNC4=O)cc1`
**Result** 17000

---

Experiment: Plasma pharmacokinetics after a single oral dose of rucaparib 600 mg in patients with advanced solid tumors, by hepatic function group
Details: human, plasma, po, 600 mg, AUC0–last, GM, Child–Pugh severe hepatic impairment; single oral rucaparib 600 mg
metric: AUC(0-t) (µg·h/mL)
Give the value in µg·h/mL but do not write µg·h/mL after it.

**Query** AUC(0-t) lookup needed for `CNCc1ccc(-c2[nH]c3cc(F)cc4c3c2CCNC4=O)cc1` , thanks.
**Result** 23.9

---

Assay: Plasma pharmacokinetics after a single oral dose of rucaparib 600 mg in patients with advanced solid tumors, by hepatic function group
Details: human, plasma, oral, 600 mg, AUC0-inf, Geometric LS means, ANOVA; NCI-ODWG moderate hepatic impairment (n = 8)
metric: AUC(0-inf) (ng·h/mL)
State just the number; it will be interpreted in ng·h/mL.

**Query** Name the reported AUC(0-inf) value associated with the compound CNCc1ccc(-c2[nH]c3cc(F)cc4c3c2CCNC4=O)cc1 [rucaparib]
**Result** 19900

---

Assay: Plasma pharmacokinetics after a single oral dose of rucaparib 600 mg in patients with advanced solid tumors, by hepatic function group
Details: human, plasma, po, 600 mg, AUC0–inf, Median (min–max), NCI-ODWG normal hepatic function; single oral rucaparib 600 mg
metric: AUC(0-inf) (µg·h/mL)
# number only, unit µg·h/mL dropped from output

**Query** Requested read-out: AUC(0-inf). Entry: `CNCc1ccc(-c2[nH]c3cc(F)cc4c3c2CCNC4=O)cc1`
**Result** 18.1

---

Assay: Plasma pharmacokinetics after a single oral dose of rucaparib 600 mg in patients with advanced solid tumors, by hepatic function group
Conditions: human, plasma, po, 600 mg, AUC0–inf, Mean (SD), Child–Pugh severe hepatic impairment; single oral rucaparib 600 mg
metric: AUC(0-inf) (ng·h/mL)
Record the value in ng·h/mL, omitting the unit from your answer.

**Query** For `CNCc1ccc(-c2[nH]c3cc(F)cc4c3c2CCNC4=O)cc1` , what is its reported AUC(0-inf)?
**Result** 48300

---

Experiment: Urine pharmacokinetics (Ae0–24, CLR) after a single oral dose of rucaparib 600 mg in patients with advanced solid tumors
Assay type: in vivo, human
Details: human, urine, po, 600 mg, NCI-ODWG moderate hepatic impairment; single oral rucaparib 600 mg; read-out: CLR, GM
metric: CL renal (mL/min)
Give the number; mL/min is assumed, so skip it.

**Query** Find the recorded CL renal belonging to `CNCc1ccc(-c2[nH]c3cc(F)cc4c3c2CCNC4=O)cc1` and report it.
**Result** 36.9

---

Assay: Plasma pharmacokinetics after a single oral dose of rucaparib 600 mg in patients with advanced solid tumors, by hepatic function group
Conditions: human, plasma, po, 600 mg, AUC0–inf, GM, Child–Pugh moderate hepatic impairment; single oral rucaparib 600 mg
metric: AUC(0-inf) (ng·h/mL)
# unit: ng·h/mL | format: bare number

**Query** Consider the molecule shown here: CNCc1ccc(-c2[nH]c3cc(F)cc4c3c2CCNC4=O)cc1 [rucaparib] What is its recorded AUC(0-inf)?
**Result** 25300

---

Experiment: Plasma pharmacokinetics after a single oral dose of rucaparib 600 mg in patients with advanced solid tumors, by hepatic function group
Details: human, plasma, po, 600 mg, Cmax, Median (min–max), Child–Pugh severe hepatic impairment; single oral rucaparib 600 mg
metric: Cmax (ng/mL)
// return numeric value only (unit: ng/mL, not printed)

**Query** Given `CNCc1ccc(-c2[nH]c3cc(F)cc4c3c2CCNC4=O)cc1` , state its recorded Cmax.
**Result** 827

Origin of measurements: paper PMC8236452
